System: NCI-H522 lung
test-protocol: NCI-60 one-dose screen, 48 h
stated-conditions: 10 µM unless noted
Compounds without any hit were thinned out: in the full panel of roughly 83,000, 20% have a hit. The source made the active and inactive calls. Rule for the calls: active = growth percent below 10; inactive = the rest.
Possible outcomes: active, inactive

[[record]]
compound = "CNC(=O)NN"
assigned_category = "inactive"

[[record]]
compound = "O=C(Nc1ccc(-n2ccc3c(NC(=O)c4ccccc4)nccc32)cc1)c1cccc(C(F)(F)F)c1"
assigned_category = "inactive"

[[record]]
compound = "Cc1nssc1=S"
assigned_category = "inactive"

[[record]]
compound = "CC(=O)n1cc(/C=C2\\N=C(c3ccc(Cl)cc3)N(c3ccc(S(=O)(=O)Nc4nccs4)cc3)C2=O)c2ccccc21"
assigned_category = "inactive"

[[record]]
compound = "CCCCCCCCCCCCCCCCNc1ccccc1"
assigned_category = "inactive"

[[record]]
compound = "CC(=O)Cc1cccnc1"
assigned_category = "inactive"

[[record]]
compound = "CCOC(=O)C(C)(CSSCC(C)(NC(=O)c1ccc2ccccc2c1)C(=O)OCC)NC(=O)c1ccc2ccccc2c1 (configuration not stated)"
assigned_category = "inactive"

[[record]]
compound = "COc1cc2ncnc(Oc3ccc(NC(=O)Nc4ccc(CN5CCOCC5)c(C(F)(F)F)c4)c4ccccc34)c2cc1OC"
assigned_category = "inactive"

[[record]]
compound = "CC1=C2C(=C[C@@](C)(CO)[C@@H]2OC(=O)N(C)CCN(C)C(=O)OC(C)(C)C)C(=O)[C@](C)(O)C12CC2"
assigned_category = "inactive"

[[record]]
compound = "O=C1C(SCCO)=C(SCCO)C(=O)N1c1ccc(-c2ccccc2)cc1"
assigned_category = "active"

[[record]]
compound = "S=c1n(CNc2ccc(Cl)nn2)nc(-c2cc(Cl)cc(Cl)c2Cl)n1/N=C/c1ccc(Cl)cc1"
assigned_category = "inactive"

[[record]]
compound = "Cc1cn(C2CC(N=[N+]=[N-])C(COP(=O)(O)OP(=O)(O)OP(=O)(O)O)O2)c(=O)[nH]c1=O (configuration not stated)"
assigned_category = "inactive"

[[record]]
compound = "CN(C)CCS(=O)(=O)Nc1cc(-c2ccc3ncnc(Nc4ccc(F)c(Cl)c4)c3c2)cnc1Cl"
assigned_category = "active"

[[record]]
compound = "O=c1c2ccccc2sc2c(NCCN3CCOCC3)nc3ccccc3c12"
assigned_category = "inactive"

[[record]]
compound = "CC(=O)Nc1ccc([I+]c2ccc([N+](=O)[O-])cc2)cc1"
assigned_category = "inactive"

[[record]]
compound = "CCN(CC)CCNCC(O)Cc1ccc(OC)cc1 (configuration not stated)"
assigned_category = "inactive"

[[record]]
compound = "CCCCCn1ncc(-c2c(O)c(O)cc3c(O)c(-c4c(C)cc5c(-c6cnn(CCCCC)n6)c(O)c(O)cc5c4O)c(C)cc23)n1"
assigned_category = "active"

[[record]]
compound = "CCNc1ncnc2n[nH]nc12"
assigned_category = "inactive"

[[record]]
compound = "Oc1ccc(Cl)cc1Sc1cc(Cl)ccc1O"
assigned_category = "inactive"

[[record]]
compound = "CC[C@H]1[C@@H]2C=C[C@@H]3[C@H]4C/C=C\\C(=O)NCCC[C@@H]5NC(=O)/C(=C(O)/C=C/[C@@H]4C[C@@H]3[C@H]2C[C@H]1C)C5=O"
assigned_category = "inactive"

[[record]]
compound = "OCCOCC(F)(F)F"
assigned_category = "inactive"

[[record]]
compound = "CCOc1ccc(-n2c(-c3cc(OC)c(OC)c(OC)c3)nnc2-c2ccc(OC)cc2N)cc1"
assigned_category = "inactive"

[[record]]
compound = "COC(=O)c1oc2c(C(C)=O)c(OCCN3CCCCC3)ccc2c1C"
assigned_category = "inactive"

[[record]]
compound = "CCOC(=O)c1noc2c1CCc1c-2cn(Cc2ccc(OC)cc2)c1-c1cc(OC)c(OC)c(OC)c1"
assigned_category = "active"

[[record]]
compound = "N#Cc1c(N)nc2c(c1N)C(c1ccc(Cl)cc1)C1=C(CCCC1=O)N2c1sc2c(c1C#N)CCCC2 (configuration not stated)"
assigned_category = "inactive"

[[record]]
compound = "c1ccc(OCC[P+](c2ccccc2)(c2ccccc2)c2ccccc2)cc1"
assigned_category = "active"

[[record]]
compound = "O=C(Nc1cccc(-n2ccc3c(NC(=O)c4ccccc4)nccc32)c1)c1cc(N2CCOCC2)cc(C(F)(F)F)c1"
assigned_category = "active"

[[record]]
compound = "Cc1ccn2cc(Cc3cc(=O)oc4c3ccc3ccccc34)c(=O)nc2c1"
assigned_category = "inactive"

[[record]]
compound = "CC(C)CCC[C@@H](C)[C@H]1CC[C@H]2[C@@H]3CC=C4N(c5ccccc5)C(=O)CC[C@]4(C)[C@H]3CC[C@]12C"
assigned_category = "inactive"

[[record]]
compound = "Cc1nccc2c3ccc(OCc4cn(Cc5ccc(Br)cc5)nn4)cc3n(CCCc3ccccc3)c12"
assigned_category = "inactive"

[[record]]
compound = "COc1cc(NC(=O)c2cc(OC)c3ccn(C)c3c2)cc2c1C[C@]1(C)CC[C@@H](O)C(C)(C)[C@H]1O2"
assigned_category = "inactive"

[[record]]
compound = "CC(=O)c1cc2c(c(O)c1C)C(=O)C(=O)c1c(O)cccc1-2"
assigned_category = "active"

[[record]]
compound = "COc1cc(CN(c2ccc(Cl)cc2)C2OC(=O)c3ccccc32)cc(OC)c1OC (configuration not stated)"
assigned_category = "inactive"

[[record]]
compound = "Nn1c(CN2CCN(c3cc4c(cc3F)c(=O)c(C(=O)O)cn4C3CC3)CC2)n[nH]c1=S"
assigned_category = "inactive"

[[record]]
compound = "Cc1cc2nc(-c3c(N)ncc(C#N)c3-c3ccc(Cl)cc3)[nH]c2cc1C"
assigned_category = "inactive"

[[record]]
compound = "Cc1[nH]c2ccc(F)cc2c1CCNC(=O)C1CCN(C(=O)c2ccc(-c3ccccc3)cc2)CC1"
assigned_category = "inactive"

[[record]]
compound = "CC(C)CNCC(=O)Nc1ccc(Cc2ccc(NC(=O)CNCC(C)C)cc2)cc1"
assigned_category = "inactive"


----------
System: M14 melanoma
test-protocol: NCI-60 one-dose screen, 48 h (100 = growth as untreated, 0 = no growth, -100 = all killed)
stated-conditions: 10 µM unless noted
About 83,000 compounds went through this panel and 20% of them were active in at least one assay; those are over-represented in the sample as a whole. Active and inactive are the calls of the source. How the source made its calls: active means growth percent below 10; inactive means the rest.
// growth lookup, one value per entry
reported-metric: growth

[[record]]
compound = "COc1ccc(-c2nn(-c3ccc(NC(=O)Nc4ccc(Cl)c(C(F)(F)F)c4)cc3)cc2-c2ccncc2)cc1Cl"
assay_result = "-4.4% (active)"

[[record]]
compound = "CCCCOc1c(N)cccc1C(=O)OCCN(CC)CC"
assay_result = "99.5% (inactive)"

[[record]]
compound = "O=C1OC(=O)C2C3CC(c4ccccc43)C12 (stereo not drawn)"
assay_result = "112% (inactive)"

[[record]]
compound = "CN1CCN(C(=O)/C=C/c2ccc([N+](=O)[O-])o2)CC1"
assay_result = "92.4% (inactive)"

[[record]]
compound = "COc1cc(NC(C)CCCN2C(=O)c3ccccc3C2=O)c2nc(C)ccc2c1OC (stereo not drawn)"
assay_result = "99.9% (inactive)"

[[record]]
compound = "CC1CCc2cc(F)cc3c(=O)c(C(=O)O)cn1c23 (stereo not drawn)"
assay_result = "97.6% (inactive)"

[[record]]
compound = "COc1ccc(C(=O)NC(=O)Nc2ccc3c(c2)NC(=O)/C3=C\\c2[nH]c(C)c(CCC(=O)O)c2C)c(F)c1"
assay_result = "33.2% (inactive)"

[[record]]
compound = "CCCCn1c(-c2cccc(OC)c2)nc2cc(OC)c(OC)cc2c1=O"
assay_result = "107% (inactive)"

[[record]]
compound = "N#Cc1c(N)nc2c(c1N)C(c1ccc(Cl)cc1)C1=C(CCCC1=O)N2c1sc2c(c1C#N)CCCC2 (stereo not drawn)"
assay_result = "90.3% (inactive)"

[[record]]
compound = "COc1cc(/C=C/C(=O)c2c(C)[n+]([O-])c3ccccc3[n+]2[O-])ccc1O"
assay_result = "103% (inactive)"

[[record]]
compound = "COc1cc(-c2nc3ccccc3s2)ccc1OCc1nc2n(n1)S(=O)(=O)c1ccccc1N2c1ccccc1"
assay_result = "120% (inactive)"

[[record]]
compound = "COc1cc(C(=O)N2CCN(C(=O)c3cc(OC)c(OCc4ccccc4)cc3N)CC2)c(N)cc1OCc1ccccc1"
assay_result = "111% (inactive)"

[[record]]
compound = "Cc1c(C(C)(C)C)cc(C(C)(C)C)c2c1CN(C)CO2"
assay_result = "118% (inactive)"

[[record]]
compound = "O=C(Nc1cccc([N+](=O)[O-])c1)c1ccc2ccccc2c1O"
assay_result = "49.8% (inactive)"

[[record]]
compound = "C=C1C(=O)O[C@H]2[C@H]1CC/C(COC(=O)n1ccnc1C)=C\\CC[C@@]1(C)O[C@@H]21"
assay_result = "91% (inactive)"

[[record]]
compound = "Fc1ccc(Nc2ncnc3ccc(-c4cn[nH]c4)cc23)cc1Cl"
assay_result = "58.7% (inactive)"

[[record]]
compound = "CN1CCN(Cn2nc(-c3cc(Cl)cc(Cl)c3Cl)n(/N=C/c3ccc(Cl)cc3)c2=S)CC1"
assay_result = "96% (inactive)"

[[record]]
compound = "COc1ccc2c(c1)nnn1c3ncccc3c(N=O)c21"
assay_result = "-67.5% (active)"

[[record]]
compound = "O=c1c2ccccc2[nH]n1Cc1ccc2c(c1)OCO2"
assay_result = "104% (inactive)"

[[record]]
compound = "COC(=O)/C=C/C(=O)c1cc(C)cc(C)c1O"
assay_result = "102% (inactive)"

[[record]]
compound = "CC1=C2C(=C[C@@](C)(CO)[C@@H]2OC(=O)N(C)CCN(C)C(=O)OC(C)(C)C)C(=O)[C@](C)(O)C12CC2"
assay_result = "54.8% (inactive)"

[[record]]
compound = "CCCN1C(=O)CSC1=Nc1ccc2cc3ccc(N=C4SCC(=O)N4CCC)cc3nc2c1"
assay_result = "50.7% (inactive)"

[[record]]
compound = "CCOc1ccc(NC2=C(Cl)C(=O)c3ccccc3C2=O)cc1"
assay_result = "68% (inactive)"

[[record]]
compound = "O=C(Cn1c2ccccc2c2ccncc21)N/N=C/c1cc(O)c(O)c(O)c1"
assay_result = "110% (inactive)"

[[record]]
compound = "O=S1(=O)N(CCNc2nccc(-c3c(-c4cccc(O)c4)nc4sccn34)n2)CCN1Cc1ccccc1"
assay_result = "28.4% (inactive)"

[[record]]
compound = "CC(/C=C/C=C(\\C)[C@H](O)[C@H](C)C(=O)O[C@H]1C[C@H](C)C=C2C=C[C@@]3(C)O[C@@H](O)CC(=O)[C@]3(C)[C@H]21)=C\\C=C\\C(=O)O"
assay_result = "-51.3% (active)"

[[record]]
compound = "O=C1CCC(c2c(O)cc(O)c3c(=O)c(O)c(-c4ccc(O)c(O)c4)oc23)N1 (stereo not drawn)"
assay_result = "101% (inactive)"

[[record]]
compound = "CN(C)C(=O)Nc1nc2cc(Cl)c(Cl)cc2[nH]1"
assay_result = "-66.9% (active)"

[[record]]
compound = "CC(NCCC(c1ccccc1)c1ccccc1)c1ccccc1 (stereo not drawn)"
assay_result = "71.8% (inactive)"

[[record]]
compound = "CCC(CC(C)C)Nc1ccc(NC(CC)CC(C)C)cc1 (stereo not drawn)"
assay_result = "99.4% (inactive)"

[[record]]
compound = "CCOc1ccc(Cc2nccc3cc(OCC)c(OCC)cc23)cc1OCC"
assay_result = "70.8% (inactive)"

[[record]]
compound = "CC[C@@]1(O)C(=O)OCc2c1cc1n(c2=O)Cc2c-1nc1ccccc1c2/C=N/OC(C)(C)C"
assay_result = "-18% (active)"

[[record]]
compound = "O=C(Nc1cccc(-n2ccc3c(NC(=O)c4ccccc4)nccc32)c1)c1cccc(C(F)(F)F)c1"
assay_result = "7.48% (active)"

[[record]]
compound = "COc1ccc2c(c1)/C(=C/c1c(-c3cc(OC)c(OC)c(OC)c3Br)nc3sccn13)C(=O)N2"
assay_result = "115% (inactive)"

[[record]]
compound = "CC(CCC(=O)O)[C@H]1CCC2C3C(=O)C[C@@H]4CC(=O)CC[C@]4(C)C3CC(=O)[C@@]21C (stereo partly drawn)"
assay_result = "110% (inactive)"

[[record]]
compound = "Fc1cccc(F)c1C#Cc1ccc2cccnc2c1"
assay_result = "95.7% (inactive)"

[[record]]
compound = "C=C(C)[C@@H]1C/C=C(\\COC(=O)[C@H](OC(C)=O)C(NC(=O)c2ccccc2)c2ccccc2)CC[C@H]2O[C@]2(C)CC/C=C(\\C)CC1 (stereo partly drawn)"
assay_result = "34.3% [5 µM] (inactive)"

[[record]]
compound = "O=C(Nc1ccc(F)cc1)Nc1ccc(Br)c(C(F)(F)F)c1"
assay_result = "15.3% (inactive)"

